B1: Twister Ribozyme (parent)
chain: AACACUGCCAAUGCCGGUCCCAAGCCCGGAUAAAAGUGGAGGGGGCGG

Variants of: B1
testDescription: self-cleavage, relative activity (ratio to wild type); higher = more cleavage; co-transcriptional
Could you label it criterion met if measured self-cleavage is 0.3 or higher, and criterion not met otherwise?

{"columns": ["alteration", "labelClass"],
 "data": [
  ["C20G G29A", "criterion not met"],
  ["U18C G48U", "criterion met"],
  ["A2U U31A", "criterion met"],
  ["A4G G16U", "criterion met"],
  ["C20A A30C", "criterion not met"],
  ["G36A C46G", "criterion met"],
  ["G16U U31A", "criterion met"],
  ["C3A G13A", "criterion not met"],
  ["C5G C19U", "criterion met"],
  ["A22U U31A", "criterion met"]
]}

Ask: Does the variant C3A C27A have recorded self-cleavage that is 0.3 or more?
Reply: criterion not met

Ask: Exam item: decide whether the reported self-cleavage for U31G C46U is at least 0.3.
Reply: criterion met

Ask: Please indicate if the recorded self-cleavage for A30C C46G meets or exceeds 0.3.
Reply: criterion met

Ask: Confirm if self-cleavage reported for the variant G24C A35G is 0.3 or above.
Reply: criterion not met

Ask: Determine whether this variant has self-cleavage no lower than 0.3: G29A G47C
Reply: criterion met

Ask: For this variant, is measured self-cleavage 0.3 or higher? G16A G38A
Reply: criterion met

Ask: Would you say G43A G45C shows self-cleavage at minimum 0.3?
Reply: criterion met

Ask: Item G41C C46U with self-cleavage of 0.3 or above?
Reply: criterion not met

Ask: For this variant, is measured self-cleavage 0.3 or higher? A40U G41A
Reply: criterion not met
